B1: glmS ribozyme (parent)
chain: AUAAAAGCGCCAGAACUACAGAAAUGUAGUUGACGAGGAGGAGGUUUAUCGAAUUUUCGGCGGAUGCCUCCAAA

Variants of: B1
procedure-text: self-cleavage kobs at 160 uM GlcN6P; higher = faster cleavage; RNA array
assay-context: with glucosamine-6-phosphate
Fewer inactive variants are shown than the library holds.
Measured self-cleavage kobs at 160 uM GlcN6P values are reported for all entries that follow.

Inquiry: Supply measured self-cleavage kobs at 160 uM GlcN6P of AUAAAAGCGCCAGAACUACAGAAAUGUAGUUGACGAGUAGGAGGUUUAUCGAAUUUUCGCCGGAUGCCUCCAAA [G38U G60C] in your reply.
Reply text: < 1e-05 s⁻¹

Inquiry: Supply measured self-cleavage kobs at 160 uM GlcN6P of AUAAAAACGCCAGAACUACAGAAAUGUAGUUGACGAGGAGGAGGUUUUUCGAAUUGUCGGCGGAUGCCUCCAAA [G7A A48U U56G] in your reply.
Reply text: < 1e-05 s⁻¹

Inquiry: Supply measured self-cleavage kobs at 160 uM GlcN6P of AUAAAAGCCCCAGAACUACAGAAAUGUAGUUGACGAGGAUGAGGUUUAUCGAAUUUUCGGCGGAUGCCUCCAAA [G9C G40U] in your reply.
Reply text: < 1e-05 s⁻¹
